Test system: PBMC
Assay: Cytotoxicity against human PBMC after 72 hrs by Alamar blue assay
Format: cell-based
Entries annotated with measured IC50
READOUT TYPE: IC50

[[record]]
compound = "CCCCCCCCCCCCCCC(Br)c1cccc(OC)c1C(=O)OC (stereo not given)"
readout_type = "IC50"
result = "> 25 µg/mL"

[[record]]
compound = "CCCCCCCCCCCCCC(O)C1OC(=O)c2c(OC)cccc21 (racemic)"
readout_type = "IC50"
result = "> 25 µg/mL"

[[record]]
compound = "CCCCCCCCCCCCCCCc1cccc(OC)c1C(=O)OC"
readout_type = "IC50"
result = "> 25 µg/mL"

[[record]]
compound = "CCCCCCCCCCCCC/C=C/c1cccc(OC)c1C(=O)OC"
readout_type = "IC50"
result = "19.8 µg/mL"

[[record]]
compound = "CCCCCCCCCCCCCC(=O)C1OC(=O)c2c(OC)cccc21 (racemic)"
readout_type = "IC50"
result = "14.5 µg/mL"

